molecular target: Thymidylate synthase (Homo sapiens) (UniProt P04818)
Sequence (P04818 2-313 limits assumed): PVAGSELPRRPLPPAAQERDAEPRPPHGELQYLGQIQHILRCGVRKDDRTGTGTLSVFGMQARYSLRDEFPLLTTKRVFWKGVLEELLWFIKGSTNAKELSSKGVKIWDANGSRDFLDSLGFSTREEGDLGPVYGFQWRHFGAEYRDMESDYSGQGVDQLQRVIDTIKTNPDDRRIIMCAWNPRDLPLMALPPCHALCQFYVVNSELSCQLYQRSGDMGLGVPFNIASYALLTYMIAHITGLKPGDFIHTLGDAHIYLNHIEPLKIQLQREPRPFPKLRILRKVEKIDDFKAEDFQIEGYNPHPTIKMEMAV
MEASUREMENT_LABEL: IF

Field: example entries. Status: answers known.
[[record]]
molecule = "O=C1OC(c2ccc(O)cc2)(c2ccc(O)cc2)c2ccc3c4c(ccc1c24)CC3"
experimental_value = 0.475

[[record]]
molecule = "O=C1OC(c2ccc(O)cc2)(c2ccc(O)c3ccccc23)c2ccccc21 (stereo not drawn)"
experimental_value = 0.172

[[record]]
molecule = "O=C1OC(O)(c2ccc(O)c(Cl)c2)c2ccc([N+](=O)[O-])c3cccc1c23 (stereo not drawn)"
experimental_value = 1

[[record]]
molecule = "O=C1OC(c2ccc(O)c(Cl)c2)(c2ccc(O)c(Cl)c2)c2ccc(Br)c3cccc1c23.O=C1OC(c2ccc(O)c(Cl)c2)(c2ccc(O)c(Cl)c2)c2cccc3c(Br)ccc1c23"
experimental_value = 1

[[record]]
molecule = "COc1ccc(C2(c3ccc(OC)cc3)OC(=O)c3cccc4cccc2c34)cc1"
experimental_value = 1

[[record]]
molecule = "O=C1OC(c2ccc(O)c(Cl)c2)(c2ccc(O)c(Cl)c2)c2cc3ccccc3cc21"
experimental_value = 0.103


(I) O=C1OC(c2ccc(O)cc2)(c2ccc(O)cc2)c2ccccc21
(II) O=C1OC(c2ccc(O)cc2)(c2ccc(O)cc2)c2ccc(Br)c3cccc1c23.O=C1OC(c2ccc(O)cc2)(c2ccc(O)cc2)c2cccc3c(Br)ccc1c23
Req: Given I and given II , which shows the smaller recorded IF? When you have decided, please share the label of that item.
Resp: I
(I: 0.182, II: 0.453)

* * *

tested on: Streptococcus; experiment: In vitro inhibition of Streptococcus growth.; assay type: functional
MEASUREMENT_LABEL: MIC (µM)

[[record]]
compound = "O=C1OC(c2ccc(O)cc2)(c2ccc(O)cc2)c2ccc(Cl)c3cccc1c23.O=C1OC(c2ccc(O)cc2)(c2ccc(O)cc2)c2cccc3c(Cl)ccc1c23"
measurement_label = "MIC"
experimental_value = 8

[[record]]
compound = "O=C1OC(O)(c2ccc(O)c(Cl)c2)c2ccc([N+](=O)[O-])c3cccc1c23 (stereo not drawn)"
measurement_label = "MIC"
experimental_value = 8

[[record]]
compound = "O=C1OC(c2ccc(O)cc2)(c2ccc(O)c3ccccc23)c2ccccc21 (stereo not drawn)"
measurement_label = "MIC"
experimental_value = 8


* * *

experiment: Ratio of cytotoxic concentration to that of minimum inhibitory concentration against Streptococcus (CC50/MIC50).; assay type: functional
MEASUREMENT_LABEL: SI
Respond using a number only.

Field: example entries. Status: answers known.
[[record]]
compound = "O=C1OC(c2ccc(O)c(F)c2)(c2ccc(O)c(F)c2)c2cc3ccccc3cc21"
measurement_label = "SI"
experimental_value = 6.2

[[record]]
compound = "O=C1OC(O)(c2ccc(O)c(Cl)c2)c2ccc([N+](=O)[O-])c3cccc1c23 (centres undefined)"
measurement_label = "SI"
experimental_value = 8.24


Req: Tell me its SI given O=C1OC(c2ccc(O)cc2)(c2ccc(O)c3ccccc23)c2ccccc21 (centres undefined) as the entry.
Resp: 6.7

Req: Tell me its SI given O=C1OC(c2ccc(O)cc2)(c2ccc(O)cc2)c2ccc3c4c(ccc1c24)CC3 as the entry.
Resp: 3.3

* * *

test system: Streptococcus; experiment: In vitro inhibition of Streptococcus growth.; type: functional
MEASUREMENT_LABEL: MIC (µM)

[[record]]
compound = "O=C1OC(c2ccc(O)cc2)(c2ccc(O)cc2)c2cc3ccccc3cc21"
test_system = "Streptococcus"
experimental_value = 34


(I) O=C1OC(c2ccc(O)c(F)c2)(c2ccc(O)c(F)c2)c2cc3ccccc3cc21
(II) O=C1OC(c2ccc(O)cc2)(c2ccc(O)cc2)c2ccccc21 [PHENOLPHTHALEIN]
(III) O=C1OC(c2ccc(O)cc2)(c2ccc(O)cc2)c2ccc(Br)c3cccc1c23.O=C1OC(c2ccc(O)cc2)(c2ccc(O)cc2)c2cccc3c(Br)ccc1c23
Req: List items by MIC in falling order. Order the labels as requested and give them as your answer.
Resp: II, I, III
(II: 38 µM, I: 15 µM, III: 7 µM)

Sourced from ChEMBL document CHEMBL1132636
